# PROTOCOL_TEXT: pKa of boronic acid monomer
# Type: physicochemical
# CONDITIONS: monomer forming the repeating units of the copolymer; read-out: pKa
OUTCOME_MEASURE: pKa

## Task Param item = C=CC(=O)Nc1cccc(B(O)O)c1 ; retrieve measured pKa.
## Result ~8.1
